Tested on: SAA stimulated IL-8 secretion in HL-60 cells
test_name: Inhibition of SAA stimulated IL-8 secretion in HL-60 cells (IL-8 in media by ELISA)
Assay type: cell-based
condition_label: Homo sapiens; HL-60 cells, serum-free DMEM, 4 hours, 1 μg/ml SAA; read-out: Calculated IC50, inhibition of SAA stimulated IL-8 secretion
quantity: IC50 (nM)
Field: numeric (nM). Do not append units.

Using the record for `Cc1ccc(-n2nc(C(C)(C)C)cc2NC(=O)Nc2ccc(OCCN3CCOCC3)c3ccccc23)cc1` , state its measured IC50.
500
